Reference source for all entries: paper PMC11093748

- System: TCR15
- Measurement Protocol: I-Ag7 SABR-II library screen, enrichment score
- Assay type: cell-based, mouse
- Condition Set: TCR15; TCR_Mean minus PREDICTED_TCR (from LIB_Mean, SLOPE 0.918454, INTERCEPT 2.00113e-5); PZ37
- Description: We then asked whether SABR-IIs could be used to present a library of epitopes for CD4^+ T cell antigen discovery. […] We confirmed that after sequencing, the library accounted for a mean of 708 reads per epitope (Extended Data Fig. 3b). […] Sequence reads were aligned to the I-Ag7 SABR-II backbone and the corresponding epitopes were scored based on their read counts. For each TCR under investigation, an enrichment score (ES) was determined for all the epitopes in a library. […]
Endpoint: Enrichment score
Give the value as a plain number.

**Q:** Name the recorded Enrichment score of the sequence listed here: AGGVAVIKAGAATEV
**A:** 2.956e-5

**Q:** Look up Enrichment score of AEKVRNLPAGHGLNAQ and report it.
**A:** 0.000168

**Q:** Dear colleague, please send me the reported Enrichment score for AAVEEGIVAGGGVTLL when you can.
**A:** -0.000165

**Q:** Read off the recorded Enrichment score for ALVREGLRNVAAGANP
**A:** -2.061e-5

**Q:** Specify reported Enrichment score for the sequence shown: AKAAVEEGIVAGGGV
**A:** 1.733e-5

* * *

- Tested on: TCR21A
- Measurement Protocol: I-Ag7 SABR-II library screen, enrichment score
- Assay type: cell-based, mouse
- Condition Set: TCR_Mean minus PREDICTED_TCR (slope 0.957287, intercept 1.04818e-5 on LIB_Mean), TCR 21A, run PZ56
Please provide measured Enrichment score for the entries that follow.

**Q:** Give reported Enrichment score for AAVEEGIVAGGGVTLL (TCR21A)
**A:** 7.745e-5

**Q:** Using TCR21A as the test system, report measured Enrichment score of AGGVAVIKAGAATEV .
**A:** 3.881e-5

**Q:** Give TCR21A Enrichment score for the following sequence: AEKVRNLPAGHGLNAQ
**A:** 0.0001683

**Q:** Give Enrichment score only, for ALVREGLRNVAAGANP , using TCR21A data.
**A:** -1.111e-5

**Q:** Under TCR21A: report Enrichment score of AKAAVEEGIVAGGGV .
**A:** -4.928e-5

* * *

- Tested on: BDC2.5 TCR
- Measurement Protocol: I-Ag7 SABR-II library screen, enrichment score
- Type: cell-based, mouse
- Condition Set: sheet Fig 1F, whole library; independent biological experiment 7 of 8
Endpoint: Enrichment score EXPT7
// return just the number, without any unit appended

**Q:** State, in one line, measured Enrichment score EXPT7 of AKAAVEEGIVAGGGV
**A:** 8.834e-6

**Q:** Return reported Enrichment score EXPT7. Input sequence: ALVREGLRNVAAGANP
**A:** -1.252e-5

**Q:** Annotate the sequence AGGVAVIKAGAATEV with its measured Enrichment score EXPT7.
**A:** -7.0061e-5

**Q:** Could you please provide reported Enrichment score EXPT7 for AEKVRNLPAGHGLNAQ ? Thanks!
**A:** 9.062e-5

**Q:** State its Enrichment score EXPT7: AAVEEGIVAGGGVTLL
**A:** -9.918e-5
